- assay_method_text: Antioxidant activity assessed as ABTS free radical scavenging activity after 6 mins by ABTS free radical decolorization assay
- Assay type: physicochemical
recorded_metric: EC50 (µM)
One number for each entry, in µM.

Tell me the measured EC50 of Cc1c(C)c2c(c(C)c1O)CCC(C)(C(=O)O)O2 (stereo unspecified) , please.
12

---

Exercise: state measured Activity for each of the compounds provided.
- assay_method_text: Antioxidant activity assessed as ABTS free radical scavenging activity after 6 mins by ABTS free radical decolorization assay relative to Trolox
- Format: physicochemical
- Design: concentration or dose not given beside the values
- test_context: 0.1 h
Numbers only, in %.

* COc1c(C)cc(O)cc1C/C=C(\C)CC(=O)/C=C(/C)CC/C=C(\C)C(O)CC1OC1(C)C (stereo not drawn) | 37
* COc1c(C)cc(O)cc1C/C=C(\C)CC(=O)/C=C(/C)CCC[C@@]1(C)O[C@@H](C(C)(C)O)CC1=O | 62
* COc1c(C)cc(O)cc1C/C=C(\C)CC(=O)/C=C(\C)C(O)CCC(C)(O)C(=O)/C=C/C(C)(C)O (stereo not drawn) | 62
* C/C(=C\C(=O)C/C(C)=C/Cc1cc(O)cc(C)c1O)CCCC(C)(O)C(=O)/C=C/C(C)(C)O (stereo not drawn) | 87
* COc1c(C)cc(O)cc1C/C=C(\C)CC(=O)/C=C(\C)CC/C=C(\C)CCC(O)C(C)(C)O (stereo not drawn) | 37
* C/C(=C\C(=O)C/C(C)=C/Cc1cc(O)cc(C)c1O)CCCC(C)C(=O)/C=C/C(C)(C)O (stereo not drawn) | 77
* COc1c(C)cc(O)cc1C/C=C(\C)CC(=O)/C=C(/C)CCC[C@@]1(C)O[C@H](C(C)(C)O)C[C@H]1O | 62

Now examine the next entry.
Activity lookup needed for COc1c(C)cc(O)cc1C/C=C(\C)CC(=O)/C=C(/C)CCCC(C)C(=O)CC(O)C(C)(C)O (stereo not drawn) , thanks.
37

---

Hi there, I'd appreciate the recorded Activity for every entry that follows.
- assay_method_text: Antioxidant activity assessed as ABTS free radical scavenging activity after 6 mins by ABTS free radical decolorization assay relative to Trolox
- Format: physicochemical
- Design: concentration or dose not given beside the values
- test_context: 0.1 h
Give bare numbers, in %.

* C/C(=C/C(=O)C/C(C)=C/Cc1cc(O)cc(C)c1O)CCCC(C)C(=O)/C=C/C(C)(C)O (centres undefined) | 77
* C/C(=C/C(=O)C/C(C)=C/Cc1cc(O)cc(C)c1O)CCCC(C)(O)C(=O)/C=C/C(C)(C)O (centres undefined) | 81
* COc1c(C)cc(O)cc1C/C=C(\C)CC(=O)/C=C(/C)CC/C=C(\C)CCC(O)C(C)(C)O (centres undefined) | 62

Proceed to the following item.
# Activity lookup, item COc1c(C)cc(O)cc1C/C=C(\C)CC(=O)/C=C(\C)CCC[C@@]1(C)O[C@@H](C(C)(C)O)CC1=O
37

All figures here come from ChEMBL document CHEMBL3804757.
